# TESTED_ON: human thyroid hormone receptors TRα1 (Homo sapiens)
# Construct: made in house; host or cells: Sf9 insect cells (baculovirus)
# Sequence (P10827 1-410 isoform P10827-2): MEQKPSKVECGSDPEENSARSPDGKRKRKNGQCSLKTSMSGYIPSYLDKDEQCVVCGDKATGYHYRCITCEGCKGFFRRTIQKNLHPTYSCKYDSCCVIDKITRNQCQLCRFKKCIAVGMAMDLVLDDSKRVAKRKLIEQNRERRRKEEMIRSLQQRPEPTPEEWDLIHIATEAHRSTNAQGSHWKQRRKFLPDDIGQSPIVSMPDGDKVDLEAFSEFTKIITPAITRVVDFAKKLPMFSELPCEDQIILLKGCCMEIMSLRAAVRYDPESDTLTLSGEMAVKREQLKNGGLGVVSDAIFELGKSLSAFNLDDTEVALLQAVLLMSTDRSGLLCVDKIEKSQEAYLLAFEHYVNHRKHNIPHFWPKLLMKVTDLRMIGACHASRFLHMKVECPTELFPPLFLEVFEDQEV
# Sequence (P19793 whole entry partner): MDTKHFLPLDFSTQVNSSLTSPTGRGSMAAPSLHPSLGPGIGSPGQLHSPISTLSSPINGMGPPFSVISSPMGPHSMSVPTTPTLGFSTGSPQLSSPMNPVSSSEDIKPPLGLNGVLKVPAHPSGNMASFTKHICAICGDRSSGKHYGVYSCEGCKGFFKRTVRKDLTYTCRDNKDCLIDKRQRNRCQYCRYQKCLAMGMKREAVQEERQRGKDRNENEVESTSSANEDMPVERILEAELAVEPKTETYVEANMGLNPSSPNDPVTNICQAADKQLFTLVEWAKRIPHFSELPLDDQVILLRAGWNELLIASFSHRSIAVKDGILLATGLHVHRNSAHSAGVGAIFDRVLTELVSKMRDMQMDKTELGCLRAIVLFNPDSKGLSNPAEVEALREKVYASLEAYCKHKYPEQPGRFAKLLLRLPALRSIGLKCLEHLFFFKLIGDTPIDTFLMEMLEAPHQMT
# PROTOCOL_SUMMARY: Receptor binding to TRα1 (gel filtration and scintillation proximity assay, labeled T3)
# MEASUREMENT_CONDITIONS: SPA data; read-out: Ki TRα
MEASURED_METRIC: Ki (nM)
Reply numerically in nM, unit not repeated.

Record excerpt, results attached:
{"MOLECULE": "CCC(CC)c1cc(Cc2c(C)cc(OCP(=O)(O)O)cc2C)ccc1O", "MEASURED_METRIC": "Ki", "VAL": 110}
{"MOLECULE": "Cc1cc(OCP(=O)(O)O)c(C)c(C)c1Cc1ccc(O)c(C(C)C)c1", "MEASURED_METRIC": "Ki", "VAL": 42.7}

Please look at the following molecule next.
// fetch human thyroid hormone receptors TRα1 (Homo sapiens) Ki for Cc1cc(OC[P@]2(=O)OCC[C@@H](c3ccc(Cl)cc3)O2)cc(C)c1Cc1ccc(O)c(C(C)C)c1 [Compound 13-6-trans] 1530

---

# Tested on: plasma cholesterol
# PROTOCOL_SUMMARY: Cholesterol lowering in hypercholesterolemic rats
# Format: in vivo
# MEASUREMENT_CONDITIONS: Rattus norvegicus, po; delivered p.o. (0.2 mg/kg/d); percentage change from pre-dose cholesterol; read-out: % Cholesterol Lowering
Listed below: change in vivo at 0.2 mg/kg/day values for each entry.
Reply numerically in %, unit not repeated.

Record excerpt, results attached:
{"SMILES_TEXT": "CC(C)c1cc(Oc2c(Br)cc(OCP(=O)(O)O)cc2Br)ccc1O", "UNIT_NAME": "%", "change in vivo at 0.2 mg/kg/day": -32.2}
{"SMILES_TEXT": "CC(C)c1cc(Oc2c(Cl)cc(NCP(=O)(O)O)cc2Cl)ccc1O", "UNIT_NAME": "%", "change in vivo at 0.2 mg/kg/day": -16.5}
{"SMILES_TEXT": "CC(C)c1cc(Oc2c(Br)cc(CCP(=O)(O)O)cc2Br)ccc1O", "UNIT_NAME": "%", "change in vivo at 0.2 mg/kg/day": -17}
{"SMILES_TEXT": "Cc1cc(OCP(=O)(O)O)c(C)c(C)c1Cc1ccc(O)c(C(C)C)c1", "UNIT_NAME": "%", "change in vivo at 0.2 mg/kg/day": -33.7}
{"SMILES_TEXT": "Cc1cc2oc(P(=O)(O)O)cc2c(C)c1Cc1ccc(O)c(C(C)C)c1", "UNIT_NAME": "%", "change in vivo at 0.2 mg/kg/day": -40.4}
{"SMILES_TEXT": "CCC(CC)c1cc(Cc2c(C)cc(OCP(=O)(O)O)cc2C)ccc1O", "UNIT_NAME": "%", "change in vivo at 0.2 mg/kg/day": -38.4}

Please look at the following molecule next.
// fetch plasma cholesterol change in vivo at 0.2 mg/kg/day for CC(C)c1cc(Oc2c(I)cc(OCP(=O)(O)O)cc2I)ccc1O -20.6

---

# TESTED_ON: human thyroid hormone receptors TRβ1 (Homo sapiens, UniProt P10828)
# Construct: made in house; host or cells: Sf9 insect cells (baculovirus)
# Sequence (P10828 whole entry): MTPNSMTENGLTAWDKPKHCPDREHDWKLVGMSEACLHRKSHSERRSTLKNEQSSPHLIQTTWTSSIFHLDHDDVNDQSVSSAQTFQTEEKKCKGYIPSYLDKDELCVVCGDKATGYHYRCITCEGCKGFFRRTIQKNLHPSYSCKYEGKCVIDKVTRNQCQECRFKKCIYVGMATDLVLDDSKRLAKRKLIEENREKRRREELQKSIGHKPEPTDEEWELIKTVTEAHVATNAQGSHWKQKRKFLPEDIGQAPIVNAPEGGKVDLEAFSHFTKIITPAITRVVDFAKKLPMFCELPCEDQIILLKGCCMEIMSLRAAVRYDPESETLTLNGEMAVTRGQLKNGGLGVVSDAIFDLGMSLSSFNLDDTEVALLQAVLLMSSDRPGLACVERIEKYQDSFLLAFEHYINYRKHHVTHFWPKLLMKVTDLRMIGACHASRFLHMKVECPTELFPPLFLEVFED
# Sequence (P19793 whole entry partner): as the sequence (P19793 whole entry partner) above
# PROTOCOL_SUMMARY: Receptor binding to TRβ1 (gel filtration and scintillation proximity assay, labeled T3)
# MEASUREMENT_CONDITIONS: SPA data; read-out: Ki TRβ
pKi: −log10 of the molar value.
Parameter threshold = 8. Response is 1 when pKi meets or exceeds it, else 0.

See these solved cases before continuing.
{"COMPOUND": "Cc1cc(OCP(=O)(O)O)cc(C)c1Sc1ccc(O)c(C(C)C)c1", "CATEGORY": 0}
{"COMPOUND": "CCC(C)c1cc(Cc2c(C)cc(CCP(=O)(O)O)cc2C)ccc1O (centres unmarked)", "CATEGORY": 1}
{"COMPOUND": "CC(C)c1cc(Cc2c(Cl)cc(C(=O)CP(=O)(O)O)cc2Cl)ccc1F", "CATEGORY": 0}
{"COMPOUND": "Cc1cc(/C=C/P(=O)(O)O)cc(C)c1Cc1ccc(O)c(C(C)C)c1", "CATEGORY": 0}
{"COMPOUND": "Cc1cc(Cc2c(C)cc(OCP(=O)(O)O)cc2C)cc(C(C)C)c1O", "CATEGORY": 0}
{"COMPOUND": "Cc1cc(OC[P@@]2(=O)OCC[C@@H](c3cccc(Br)c3)O2)cc(C)c1Cc1ccc(O)c(C(C)C)c1 [Compound 13-2-cis]", "CATEGORY": 0}

State whether the measured pKi reaches 8, counting equality as reaching it, for Cc1cc(OC[P@@]2(=O)OCC[C@@H](c3cc(Cl)cc(Cl)c3)O2)cc(C)c1Cc1ccc(O)c(C(C)C)c1 [Compound 13-7-cis] 0

State whether the measured pKi reaches 8, counting equality as reaching it, for Cc1cc(S(=O)(=O)CP(=O)(O)O)cc(C)c1Cc1ccc(O)c(C(C)C)c1 0

State whether the measured pKi reaches 8, counting equality as reaching it, for O=P(O)(O)Cc1cc(Cl)c(Oc2ccc(O)c(S(=O)(=O)N[C@@H]3C[C@H]4CC[C@@H]3C4)c2)c(Cl)c1 (relative stereo) 0

State whether the measured pKi reaches 8, counting equality as reaching it, for Cc1cc(OCP(=O)(OCOC(=O)OC(C)C)OCOC(=O)OC(C)C)cc(C)c1Cc1ccc(O)c(C(C)C)c1 0

State whether the measured pKi reaches 8, counting equality as reaching it, for CC(C)c1cc(Oc2c(Br)cc(CCP(=O)(O)O)cc2Br)ccc1O 1

State whether the measured pKi reaches 8, counting equality as reaching it, for CC(C)c1cc(Oc2c(I)cc(CCP(=O)(O)O)cc2I)ccc1O 1

State whether the measured pKi reaches 8, counting equality as reaching it, for COc1ccc(Cc2c(C)cc(OCP(=O)(O)O)cc2C)cc1C(C)C 0

State whether the measured pKi reaches 8, counting equality as reaching it, for COc1cc(CCP(=O)(O)O)cc(OC)c1Cc1ccc(O)c(C(C)C)c1 0
